From: patent US12024507B2

# Experimental details: Passive permeability and efflux ratio in Caco-2 cell monolayers
# Format: in vitro ADME
# Cond: human; Caco-2, 5 μM, pH 7.4, 120 minutes, apical to basolateral
Papp A→B at 120 min, 5 μM values for the compounds below.

Smiles data | Unit label | Papp A→B at 120 min, 5 μM
N#Cc1ccc(COc2cccc(C3CCN(Cc4nc5ccc(-c6nc(=O)[nH]o6)cc5n4Cc4cncs4)CC3)n2)c(F)c1 | ×10⁻⁶ cm/s | 46.9
N#Cc1ccc(COc2cccc(C3CCN(Cc4nc5ccc(-c6nnn[nH]6)cc5n4C[C@@H]4CCO4)CC3)n2)c(F)c1 | ×10⁻⁶ cm/s | 1.8
